Each recorded value in this set is attributed to a melting point compilation (Tetko et al.).

METRIC: melting point (°C)

Past entries and their recorded results:
- MOLECULE: "COC(=O)C1(S(=O)(=O)c2ccc(C)cc2)CC1"
  melting point (°C): 97.2
- MOLECULE: "Cc1ccc(-c2csc(/C(C#N)=N\\Nc3ccc(Cl)cc3Cl)n2)cc1"
  melting point (°C): 211
- MOLECULE: "O=C(Nc1ccccc1)c1ccccc1[N+](=O)[O-]"
  melting point (°C): 154

(A) Fc1cccc(P(c2cccc(F)c2)c2cccc(F)c2)c1
(B) OCC1OC(O)C(O)C(O)C1O (stereo unspecified)
Pick one: A or B . Which one has the lower reported melting point? Please reply using the label of the selected record. A
(A: 61.5 °C, B: 170 °C)
